- Tested on: Rattus norvegicus
- PROTOCOL_TEXT: Antifertility activity in Wistar rat assessed as inhibition of preimplantive gestation by measuring resorptions at 40 mg/kg, po administered in days 9 to 12 of pregnancy measured on day 21
- Type: functional
- Parameters: scale not given: the % may be the effect or the level left
The compounds listed here are annotated with their Activity.
// units = %; emit number, no label

# SAMPLE_SMILES, Activity (%)
data = [
    ("C[C@]12CC[C@H]3[C@@H](CCC4=C/C(=N/Oc5ccc(C(F)(F)F)cc5)CC[C@@]43C)[C@@H]1CC[C@@H]2O", 11.8),
    ("C[C@]12CC/C(=N\\Oc3ccc([N+](=O)[O-])cc3)C[C@@H]1CC[C@@H]1[C@@H]2CC[C@]2(C)[C@@H](O[N+](=O)[O-])CC[C@@H]12", 30.8),
]

Okay, now this compound:
Req: I have this compound here, C[C@]12CC/C(=N\OCc3ccccc3)C[C@@H]1CC[C@@H]1[C@@H]2CC[C@]2(C)[C@@H](O)CC[C@@H]12 , and I need its recorded Activity.
Resp: 13.3

---

- Test system: Rattus norvegicus
- PROTOCOL_TEXT: Antifertility activity in Wistar rat assessed as inhibition of preimplantive gestation by measuring resorptions at 40 mg/kg, po administered in days 9 to 12 of pregnancy measured on day 21
- Format: functional
- Set-up: scale not given: the % may be the effect or the level left
// classify: if (Activity < 10%) 1.0 else 0.0

Solved entries:
# SAMPLE_SMILES, CLASS
records = [
    ("C[C@]12CC/C(=N\\Oc3ccc(C#N)cc3)C[C@@H]1CC[C@@H]1[C@@H]2CC[C@]2(C)[C@@H](O)CC[C@@H]12", 0.0),
    ("C#C[C@]1(O)CC[C@H]2[C@@H]3CCC4=C/C(=N/Oc5ccc([N+](=O)[O-])cc5)CC[C@@H]4[C@H]3CC[C@@]21C", 0.0),
    ("CC(=O)O[C@H]1CC[C@H]2[C@@H]3CC[C@H]4C/C(=N/Sc5ccc([N+](=O)[O-])cc5)CC[C@]4(C)[C@H]3CC[C@]12C", 1.0),
    ("C[C@]1(O)CC[C@H]2[C@@H]3CC[C@H]4C/C(=N/Oc5ccc([N+](=O)[O-])cc5[N+](=O)[O-])CC[C@@H]4[C@H]3CC[C@@]21C", 1.0),
]

In the following, a different molecule is considered.
Req: Quick check: Activity of C[C@]12CC/C(=N\Oc3ccc([N+](=O)[O-])cc3Cl)C[C@@H]1CC[C@@H]1[C@@H]2CC[C@]2(C)[C@@H](O)CC[C@@H]12 under 10%?
Resp: 1.0

---

- System: Rattus norvegicus
- PROTOCOL_TEXT: Antifertility activity in Wistar rat assessed as inhibition of preimplantive gestation by measuring resorptions at 40 mg/kg, po administered in days 9 to 12 of pregnancy measured on day 21
- Type: functional
- Set-up: scale not given: the % may be the effect or the level left
Reported Activity by item:

Recorded results for 3 molecules are shown here.
# MOLECULE, MEASURED_TARGET, Activity
rows = [
    ("C[C@]12CC[C@H]3[C@@H](CC[C@H]4C/C(=N/Oc5ccc([N+](=O)[O-])cc5[N+](=O)[O-])CC[C@@H]43)[C@@H]1CC[C@@H]2O", "Rattus norvegicus", "16.4%"),
    ("C[C@]12CC[C@H]3[C@@H](CCC4=C/C(=N/Oc5ccc([N+](=O)[O-])cc5)CC[C@@]43C)[C@@H]1CC[C@@H]2O", "Rattus norvegicus", "93.8%"),
    ("CC(=O)O[C@H]1CC[C@H]2[C@@H]3CCC4C/C(=N/Oc5ccc([N+](=O)[O-])cc5)C=C[C@]4(C)[C@H]3CC[C@]12C (stereo partly specified)", "Rattus norvegicus", "2%"),
]

Req: Give its Activity value. Item: CC(=O)O[C@H]1CC[C@H]2[C@@H]3CC[C@H]4C/C(=N/Nc5ccc([N+](=O)[O-])cc5)CC[C@]4(C)[C@H]3CC[C@]12C
Resp: 7.7%

Req: For the molecule shown here, Cc1cc([N+](=O)[O-])ccc1O/N=C1\CC[C@@]2(C)[C@@H](CC[C@@H]3[C@@H]2CC[C@]2(C)[C@@H](O)CC[C@@H]32)C1 , give the reported Activity.
Resp: 5.7%

Req: For C[C@@]12CCC[C@H]1[C@@H]1CC[C@H]3C/C(=N/Oc4ccc([N+](=O)[O-])cc4)CC[C@]3(C)[C@H]1CC2 , what is its reported Activity?
Resp: 0%
